Molecular target: T1, human tissue factor pathway inhibitor (TFPI) (human, UniProt P10646 29-304, limits assumed)
T1 construct: bought; also called hTFPI; human TFPI
T1 sequence (looked up): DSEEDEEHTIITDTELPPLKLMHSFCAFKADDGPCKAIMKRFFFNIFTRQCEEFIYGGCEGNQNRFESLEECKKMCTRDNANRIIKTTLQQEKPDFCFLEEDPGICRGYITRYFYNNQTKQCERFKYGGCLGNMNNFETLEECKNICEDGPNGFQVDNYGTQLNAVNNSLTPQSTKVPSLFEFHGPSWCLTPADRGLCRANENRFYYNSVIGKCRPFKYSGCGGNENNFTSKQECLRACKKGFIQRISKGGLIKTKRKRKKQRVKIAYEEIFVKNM
Experiment: competitive ELISA
ASSAY_READOUT: variant/HC_K99L (ratio)
State the answer as a number, implicitly in ratio.

BINDER	U	MEASUREMENT
2A8 HC S35D+K99L/LC unchanged (Fab, V domains shown) VH: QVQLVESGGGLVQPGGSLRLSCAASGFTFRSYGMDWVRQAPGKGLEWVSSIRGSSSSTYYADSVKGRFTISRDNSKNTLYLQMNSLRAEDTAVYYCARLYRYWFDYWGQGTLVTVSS VL: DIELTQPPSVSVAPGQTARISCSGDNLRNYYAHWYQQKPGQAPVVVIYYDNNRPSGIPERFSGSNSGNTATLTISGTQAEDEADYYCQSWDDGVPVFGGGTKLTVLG	ratio	3.9
2A8 HC S31V+S35D+S55R/LC Y48F+N51V+D91L+V96W (Fab, V domains shown) VH: QVQLVESGGGLVQPGGSLRLSCAASGFTFRVYGMDWVRQAPGKGLEWVSSIRGSRSSTYYADSVKGRFTISRDNSKNTLYLQMNSLRAEDTAVYYCARKYRYWFDYWGQGTLVTVSS VL: DIELTQPPSVSVAPGQTARISCSGDNLRNYYAHWYQQKPGQAPVVVIFYDVNRPSGIPERFSGSNSGNTATLTISGTQAEDEADYYCQSWLDGVPWFGGGTKLTVLG	ratio	8.7

Now take the following binder into account.
Value of measured variant/HC_K99L for the entry 2A8 HC S35D+S55R+K99L/LC N26A+Y48F+N51V+D91W (Fab, V domains shown) VH: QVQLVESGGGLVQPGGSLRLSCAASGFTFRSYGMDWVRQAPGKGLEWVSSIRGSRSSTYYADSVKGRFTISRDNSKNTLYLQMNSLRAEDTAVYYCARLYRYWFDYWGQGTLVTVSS VL: DIELTQPPSVSVAPGQTARISCSGDALRNYYAHWYQQKPGQAPVVVIFYDVNRPSGIPERFSGSNSGNTATLTISGTQAEDEADYYCQSWWDGVPVFGGGTKLTVLG : 4.1
